Entries below carry reported pIC50 on ROCK2 (Homo sapiens).
In plain terms, pIC50 is the concentration in mol/L turned into minus its base-10 logarithm.

Worked cases, pIC50 given:
compound=O=C1NCCc2cc(Nc3nc(-c4cc5c(s4)CCN(C(=O)CCC(F)(F)F)C5)ncc3F)ccc21 quantitativeresult=7.35
compound=O=C1NCCc2cc(Nc3nc(-c4ccc5c(c4)CN(C(=O)N4CCC(F)(F)CC4)C5)ncc3F)ccc21 quantitativeresult=6.82
compound=O=C1NCCc2cc(Nc3nc(-c4cc5c(s4)CCN(C(=O)OC(C(F)(F)F)C(F)(F)F)C5)ncc3F)ccc21 quantitativeresult=6.77
compound=O=C(OC1CC(F)(F)C1)N1CCc2cc(-c3nccc(Nc4ccc5c(=O)[nH]ccc5c4)n3)ccc2C1 quantitativeresult=7.35
compound=O=C(c1cc2ccc(-c3ncc(F)c(Nc4ccc5c(=O)[nH]ccc5c4)n3)cc2[nH]1)N1CC(F)(F)C1 quantitativeresult=8.40
compound=O=C(C1CC(F)(F)C1)N1Cc2ccc(-c3ncc(F)c(Nc4ccc5c(=O)[nH]cnc5c4)n3)cc2C1 quantitativeresult=7.12
compound=CC(C)(C)OC(=O)N1CCc2cc(-c3ncc(F)c(Nc4ccc5c(=O)[nH]ccc5c4)n3)ccc2C1 quantitativeresult=6.65
compound=CC(C)(CC(=O)N1Cc2ccc(-c3ncc(F)c(Nc4ccc5c(c4)CCNC5=O)n3)cc2C1)C(F)(F)F quantitativeresult=6.89

// query Query (compound): CC(OC(=O)N1CCc2sc(-c3ncc(F)c(Nc4ccc5c(=O)[nH]ncc5c4)n3)cc2C1)C(F)(F)F (stereo not shown) ; field requested: pIC50
// result 7.89

// query Query (compound): CC(CC(=O)N1CCc2cc(-c3ncc(F)c(Nc4ccc5c(c4)CCNC5=O)n3)ccc21)C(F)(F)F (stereo not shown) ; field requested: pIC50
// result 7.27

###

Entries below carry reported pIC50 on ROCK2 (Homo sapiens).
In plain terms, pIC50 is the concentration in mol/L turned into minus its base-10 logarithm.

molecule="O=C(N1Cc2ccc(-c3ncc(F)c(Nc4ccc5c(=O)[nH]ccc5c4)n3)cc2C1)C(F)(F)F [C62]" quantitativeresult=6.86
molecule="C[C@@H](OC(=O)N1CCc2sc(-c3ncc(F)c(Nc4ccc5c(c4)CCNC5=O)n3)cc2C1)C(F)(F)F [C65]" quantitativeresult=7.10
molecule="CC(CC(=O)N1Cc2ccc(-c3ncc(F)c(Nc4ccc5c(=O)[nH]ccc5c4)n3)cc2C1)C(F)(F)F (stereo not shown) [C37]" quantitativeresult=6.93
molecule="CC(C)(C)CC(=O)N1Cc2ccc(-c3nccc(Nc4ccc5c(=O)[nH]ccc5c4)n3)cc2C1 [C56]" quantitativeresult=7.62
molecule="CC(CC(=O)N1CCc2sc(-c3nccc(Nc4ccc5c(=O)[nH]ccc5c4)n3)cc2C1)C(F)(F)F (stereo not shown) [C49]" quantitativeresult=8.15

// query Query (molecule): O=C(C1CCC(F)(F)CC1)N1Cc2ccc(-c3ncc(F)c(Nc4ccc5c(=O)[nH]ccc5c4)n3)cc2C1 [C13] ; field requested: pIC50
// result 7.42

// query Query (molecule): CC(C)(C)CC(=O)N1Cc2ccc(-c3ncc(F)c(Nc4ccc5c(=O)[nH]ccc5c4)n3)cc2C1 [C51] ; field requested: pIC50
// result 7.28

###

Entries below carry reported pIC50 on ROCK2 (Homo sapiens, UniProt O75116).
Sequence (O75116 whole entry, looked up): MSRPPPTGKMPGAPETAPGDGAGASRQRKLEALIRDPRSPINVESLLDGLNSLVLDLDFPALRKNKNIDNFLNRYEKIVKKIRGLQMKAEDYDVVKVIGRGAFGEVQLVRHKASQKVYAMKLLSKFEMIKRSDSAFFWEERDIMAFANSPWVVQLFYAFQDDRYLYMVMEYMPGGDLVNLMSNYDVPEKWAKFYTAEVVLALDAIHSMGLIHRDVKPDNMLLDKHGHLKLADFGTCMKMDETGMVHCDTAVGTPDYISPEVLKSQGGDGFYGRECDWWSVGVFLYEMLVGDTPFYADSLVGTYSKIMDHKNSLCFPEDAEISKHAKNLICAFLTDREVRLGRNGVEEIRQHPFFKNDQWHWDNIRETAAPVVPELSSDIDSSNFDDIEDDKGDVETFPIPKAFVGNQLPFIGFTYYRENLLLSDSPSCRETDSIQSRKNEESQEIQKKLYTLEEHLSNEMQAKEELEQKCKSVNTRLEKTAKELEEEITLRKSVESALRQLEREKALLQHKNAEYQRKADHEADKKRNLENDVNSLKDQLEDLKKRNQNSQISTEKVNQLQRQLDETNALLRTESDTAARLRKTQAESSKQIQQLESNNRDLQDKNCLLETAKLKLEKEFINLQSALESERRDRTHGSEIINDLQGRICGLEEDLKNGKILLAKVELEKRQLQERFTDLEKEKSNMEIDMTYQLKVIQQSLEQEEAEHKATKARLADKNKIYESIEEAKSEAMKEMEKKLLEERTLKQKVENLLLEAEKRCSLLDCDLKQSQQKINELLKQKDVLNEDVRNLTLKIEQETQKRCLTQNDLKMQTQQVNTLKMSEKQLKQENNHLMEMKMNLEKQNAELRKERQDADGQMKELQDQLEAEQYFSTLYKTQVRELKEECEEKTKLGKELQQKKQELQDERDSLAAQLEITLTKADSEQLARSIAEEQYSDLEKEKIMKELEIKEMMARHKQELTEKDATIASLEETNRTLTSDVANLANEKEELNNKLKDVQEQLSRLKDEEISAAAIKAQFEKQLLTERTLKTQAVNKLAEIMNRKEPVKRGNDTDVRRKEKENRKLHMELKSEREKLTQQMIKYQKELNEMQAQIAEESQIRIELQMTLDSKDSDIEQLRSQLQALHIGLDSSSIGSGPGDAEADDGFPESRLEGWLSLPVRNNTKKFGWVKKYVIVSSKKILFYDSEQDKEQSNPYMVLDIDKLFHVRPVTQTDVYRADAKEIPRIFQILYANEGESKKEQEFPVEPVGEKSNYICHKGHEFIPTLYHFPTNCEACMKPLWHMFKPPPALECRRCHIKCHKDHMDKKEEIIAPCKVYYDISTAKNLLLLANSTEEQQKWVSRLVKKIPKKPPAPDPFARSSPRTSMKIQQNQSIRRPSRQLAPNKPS
In plain terms, pIC50 is the concentration in mol/L turned into minus its base-10 logarithm.

compound="CC(CC(=O)N1Cc2ccc(-c3nc(Nc4ccc5c(=O)[nH]ccc5c4)c4ccccc4n3)cc2C1)C(F)(F)F (stereo not drawn) [C50]" quantitativeresult=6.55
compound="COCn1c(C(=O)N2CC(F)(F)C2)cc2ccc(-c3ncc(F)c(Nc4ccc5c(=O)[nH]ccc5c4)n3)cc21 [C20]" quantitativeresult=6.62
compound="O=C(C1CC(F)(F)C1)N1CCc2cc(-c3ncc(F)c(Nc4ccc5c(=O)[nH]ccc5c4)n3)ccc21 [C15]" quantitativeresult=7.10

// query Form: Entry = CC(CC(=O)N1CCc2sc(-c3ncc(F)c(Nc4ccc5c(=O)[nH]ccc5c4)n3)cc2C1)C(F)(F)F (stereo not drawn) [C47] | System = ROCK2 (Homo sapiens, UniProt O75116) | pIC50 = ____
// result 7.82

// query Form: Entry = O=C(OC1CC(F)(F)C1)N1CCc2cc(-c3ncc(F)c(Nc4ccc5c(=O)[nH]ccc5c4)n3)ccc21 [C16] | System = ROCK2 (Homo sapiens, UniProt O75116) | pIC50 = ____
// result 7.72

// query Form: Entry = CC(OC(=O)N1CCc2cc(-c3ncc(F)c(Nc4ccc5c(=O)[nH]ccc5c4)n3)ccc2C1)C(F)(F)F (stereo not drawn) [C39] | System = ROCK2 (Homo sapiens, UniProt O75116) | pIC50 = ____
// result 6.99
